The following molecules are listed with their measured IC50 values.
Target or system: c-Kit (Homo sapiens, UniProt P10721)
Sequence (P10721 26-976): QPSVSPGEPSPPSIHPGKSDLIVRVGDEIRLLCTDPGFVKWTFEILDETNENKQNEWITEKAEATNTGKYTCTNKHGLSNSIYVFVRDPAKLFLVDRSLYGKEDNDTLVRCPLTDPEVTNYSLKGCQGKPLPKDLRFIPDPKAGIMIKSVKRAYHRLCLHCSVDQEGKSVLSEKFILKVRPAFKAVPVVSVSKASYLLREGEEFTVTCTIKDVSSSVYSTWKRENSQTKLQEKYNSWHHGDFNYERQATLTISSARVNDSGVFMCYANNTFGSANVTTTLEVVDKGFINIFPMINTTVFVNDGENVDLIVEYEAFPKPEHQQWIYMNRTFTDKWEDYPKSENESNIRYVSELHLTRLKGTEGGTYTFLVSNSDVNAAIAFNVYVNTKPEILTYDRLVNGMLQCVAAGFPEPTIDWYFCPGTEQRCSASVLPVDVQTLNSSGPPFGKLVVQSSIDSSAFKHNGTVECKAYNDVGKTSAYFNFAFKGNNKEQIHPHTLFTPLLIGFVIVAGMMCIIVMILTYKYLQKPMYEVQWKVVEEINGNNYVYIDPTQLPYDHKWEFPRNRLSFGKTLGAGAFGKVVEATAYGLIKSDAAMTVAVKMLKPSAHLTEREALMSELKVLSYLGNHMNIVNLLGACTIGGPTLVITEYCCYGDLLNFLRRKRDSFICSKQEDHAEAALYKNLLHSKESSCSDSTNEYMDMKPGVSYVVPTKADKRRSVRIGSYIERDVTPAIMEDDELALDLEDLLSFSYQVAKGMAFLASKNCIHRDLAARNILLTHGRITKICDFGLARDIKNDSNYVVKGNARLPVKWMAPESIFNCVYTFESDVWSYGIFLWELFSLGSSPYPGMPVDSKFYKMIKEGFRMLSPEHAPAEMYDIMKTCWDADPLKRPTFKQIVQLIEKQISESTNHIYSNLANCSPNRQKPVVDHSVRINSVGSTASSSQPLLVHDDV

Field: example entries. Status: answers known.
[[record]]
test_smiles = "COc1cc2c(Oc3ccc(NC(=O)C4(C(=O)Nc5ccc(F)cc5)CC4)cc3F)ncnc2cc1OC(=O)N1CCNC[C@H]1C"
result = "100 to 1000 nM"

[[record]]
test_smiles = "COc1cc2c(Oc3ccc(NC(=O)C4(C(=O)Nc5ccc(F)cc5)CC4)cc3)ncnc2cc1OC(=O)N1CCNC[C@H]1C"
result = "< 100 nM"

[[record]]
test_smiles = "COc1cc2c(Oc3ccc(NC(=O)C4(C(=O)Nc5ccc(F)cc5)CC4)cc3)ccnc2cc1OC(=O)N1C[C@@H]2C[C@H]1CN2C"
result = "< 100 nM"

[[record]]
test_smiles = "COc1cc2nccc(Oc3ccc(NC(=O)C4(C(=O)Nc5ccc(F)cc5)CC4)cc3)c2cc1OC(=O)N1[C@H](C)CNC[C@@H]1C"
result = "< 100 nM"

[[record]]
test_smiles = "COc1cc2nccc(Oc3ccc(NC(=O)C4(C(=O)Nc5ccc(F)cc5)CC4)cc3)c2cc1OC(=O)N1CCNCC1(C)C"
result = "< 100 nM"


Kindly review the next molecule as well.
Fill blank: measured IC50 of the molecule COc1cc2nccc(Oc3ccc(NC(=O)C4(C(=O)Nc5ccc(F)cc5)CC4)cc3)c2cc1OC(=O)N1CCN(C)C[C@H]1C is ____.
< 100 nM

// data source = patent US11358949B2
